Reported IC50 values follow for various compounds
Target: recombinant human arginase 1 (Homo sapiens, UniProt P05089)
Construct: purchased Biolegend 552502
Sequence (P05089 1-322): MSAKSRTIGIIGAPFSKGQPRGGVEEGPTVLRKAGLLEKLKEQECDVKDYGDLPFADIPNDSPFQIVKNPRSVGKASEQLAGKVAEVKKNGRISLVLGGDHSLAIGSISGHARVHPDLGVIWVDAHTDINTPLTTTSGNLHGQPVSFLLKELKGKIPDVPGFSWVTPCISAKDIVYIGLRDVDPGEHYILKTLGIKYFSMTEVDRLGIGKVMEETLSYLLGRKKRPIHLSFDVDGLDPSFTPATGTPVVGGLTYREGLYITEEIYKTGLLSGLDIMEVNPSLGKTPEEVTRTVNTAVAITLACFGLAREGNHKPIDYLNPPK
Assay: Human arginase activity assay (urea measurement), arginase 1
Type: biochemical
Conditions: recombinant human arginase 1, pH 7.4, 37° C., 60 min; * = value for the most potent diastereoisomer or the mixture of diastereoisomers; read-out: Activity Class (ARG I)
Where a name gives a salt, the structure may show the parent alone.

Example results:
Q: Reported IC50 for C[C@H]1[C@H](CCB(O)O)CCC1(N)C(=O)O (mixture of isomers) : what is it?
Ans: > 100000 nM

Q: Subsequent entry: CN(Cc1ccccc1)CC1CCC(CCB(O)O)CC1(N)C(=O)O (stereo not drawn) [Example 21, dihydrochloride]
Ans: 100 to 1000 nM

Others:
Q: Reported IC50 for N[C@]1(C(=O)O)C[C@H](CCB(O)O)CC[C@H]1CNCC(F)(F)F (racemic) [Example 36, dihydrochloride] : what is it?
Ans: > 100000 nM

Q: Subsequent entry: NC1(C(=O)O)C[C@H](CCB(O)O)CCC1CCN1CCCC1 (stereo partly drawn) [Example 46, dihydrochloride]
Ans: 1 to 100 nM

Q: Subsequent entry: NC1(C(=O)O)CC(CCB(O)O)N(Cc2ccccc2)C1 (stereo not drawn) [Example 8, dihydrochloride]
Ans: > 100000 nM

Q: Subsequent entry: CC1(C)[C@H]2C[C@@H]3OB(CC[C@@H]4CC[C@@H](CN5CCCC5)[C@@](N)(C(=O)O)C4)O[C@]3(C)[C@@H]1C2 [Example 45, dihydrochloride]
Ans: 1 to 100 nM

Q: Subsequent entry: N[C@@]1(C(=O)O)CCC[C@@H](CCB(O)O)C1 (racemic) [Example 10, hydrochloride]
Ans: 1000 to 10000 nM

Q: Subsequent entry: CN(C)C[C@@H]1C[C@@H](CCB(O)O)CC(N)(C(=O)O)C1 (mixture of isomers) [Example 55, dihydrochloride]
Ans: 1000 to 10000 nM

Q: Subsequent entry: CN(Cc1ccc(Cl)c(Cl)c1)C[C@@H]1CC[C@@H](CCB(O)O)C[C@]1(N)C(=O)O (racemic) [Example 28, dihydrochloride]
Ans: 100 to 1000 nM

Q: Subsequent entry: N[C@@]1(C(=O)O)C[C@H](CCB(O)O)CC[C@H]1O (racemic) [Example 14, hydrochloride]
Ans: 10000 to 100000 nM

Q: Subsequent entry: NC1CCC(CCB(O)O)CC1(N)C(=O)O (single isomer, unassigned) [Example 48, dihydrochloride]
Ans: 100 to 1000 nM

Q: Subsequent entry: N[C@@]1(C(=O)O)CNC[C@H](CCB(O)O)C1 (racemic)
Ans: 10000 to 100000 nM

Q: Subsequent entry: CN(C)C[C@@H]1CC[C@@H](CCB(O)O)C[C@]1(N)C(=O)O [Example 38]
Ans: 1 to 100 nM

Q: Subsequent entry: N[C@@H](CCCCB(O)O)C(=O)O [Comparative example 1, reference compound]
Ans: 100 to 1000 nM

Q: Subsequent entry: N[C@@]1(C(=O)O)COC[C@H](CCB(O)O)C1 (racemic) [Example 60, hydrochloride]
Ans: 10000 to 100000 nM

###

Molecular target: recombinant human arginase 1 (Homo sapiens)
Sequence (P05089 1-322): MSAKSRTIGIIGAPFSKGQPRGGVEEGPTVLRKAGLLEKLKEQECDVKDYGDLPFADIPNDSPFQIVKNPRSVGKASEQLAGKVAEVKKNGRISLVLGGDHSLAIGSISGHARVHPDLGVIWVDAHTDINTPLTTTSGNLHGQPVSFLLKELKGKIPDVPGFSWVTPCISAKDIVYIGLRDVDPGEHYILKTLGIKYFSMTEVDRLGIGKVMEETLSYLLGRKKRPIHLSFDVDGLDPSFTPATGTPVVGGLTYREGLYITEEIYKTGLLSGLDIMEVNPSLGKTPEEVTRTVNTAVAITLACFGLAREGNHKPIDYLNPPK
Assay: Human arginase activity assay (urea measurement), arginase 1
Conditions: recombinant human arginase 1, pH 7.4, 37° C., 60 min; * = value for the most potent diastereoisomer or the mixture of diastereoisomers; read-out: Activity Class (ARG I)
Where a name gives a salt, the structure may show the parent alone.
Reported IC50 values follow for various molecules

Q: Reported IC50 for CN(C)C[C@H]1CC[C@@H](CCB(O)O)C[C@]1(N)C(=O)O (racemic) [Example 18, dihydrochloride] : what is it?
Ans: 0.1 to 1 µM

Q: Subsequent entry: N[C@]1(C(=O)O)C[C@H](CCB(O)O)CC[C@H]1CN1CCC(c2ccc(Cl)cc2)CC1 (racemic) [Example 27, dihydrochloride]
Ans: 0.1 to 1 µM

Q: Subsequent entry: CC(C)(C)NC[C@@H]1CC[C@@H](CCB(O)O)C[C@]1(N)C(=O)O (racemic) [Example 33, dihydrochloride]
Ans: 0.001 to 0.1 µM

Q: Subsequent entry: COC(=O)[C@@]1(N)C[C@H](CCB(O)O)CC[C@H]1CN(C)C [Example 43, dihydrochloride]
Ans: 10 to 100 µM

Q: Subsequent entry: CC1(O)CCC(CCB(O)O)CC1(N)C(=O)O (stereo not drawn) [Example 50, hydrochloride]
Ans: 0.1 to 1 µM

The record that follows has no IC50 shown yet.
Q: Reported IC50 for NC1(C(=O)O)CC(CCB(O)O)CCC1CN1CCOCC1 (stereo not drawn) [Example 20, dihydrochloride] : what is it?
Ans: 1 to 10 µM
